- assaySystem: VTCN1, Q7Z7D3
- Sequence (Q7Z7D3 whole entry): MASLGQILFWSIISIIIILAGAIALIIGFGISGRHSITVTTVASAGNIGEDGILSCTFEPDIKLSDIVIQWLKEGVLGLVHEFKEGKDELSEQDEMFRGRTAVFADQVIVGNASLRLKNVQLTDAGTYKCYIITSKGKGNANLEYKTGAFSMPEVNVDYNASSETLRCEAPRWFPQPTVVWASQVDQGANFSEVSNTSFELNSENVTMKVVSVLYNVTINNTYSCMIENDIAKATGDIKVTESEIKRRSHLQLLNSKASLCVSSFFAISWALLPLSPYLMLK
readout: binding in a display sort

Below: 4 binders and their reported binding in a display sort.
binding in a display sort reading for design_604_3e0b3014-b333-46f1-8adc-d7f0bf8048fa_1479_dldesign_0_cycle1_af2pred (protein) MEEEVKKAKEKIEKLEKAALKTIDILEESAKLGDDISGIKTAAKAAEKEFGKLAKEYPGAAAYAKEAEKKVVDYANKAIKAAKAAK : not found (inactive)

For design_599_7ce25d4d-e004-4b84-a16f-baf856d943ab_1969_dldesign_0_cycle1_af2pred (protein) MKVEEEVKKTKKVAEEAIKRAEEERKKASPELKEETEEVIKKAKEYMEKAEKAVKEGDYEKAKEYAKKMATYASELIALVNAIKH the binder record lists binding in a display sort as not found (inactive)

GET /value?item= design_607_777643b9-bd23-49d1-80ae-2b1434974efa_648_dldesign_0_cycle1_af2pred (protein) SEEERRRREEAYRELSEALREARELGKRLKEAGADPEVIKRLSELLAEISETLAELRAGLANEEEIERAKEAAREALELAREELERL &field=binding in a display sort returns not found (inactive)

// binding in a display sort value for design_596_3e5f537c-0703-45f0-993f-ff416531349a_1329_dldesign_0_cycle1_af2pred (protein) MEASEELRKAIKYARELGEKGTEEHKKLAAEAVFYASSDPEKAIALLKEVAKDPKVKELAEKAIEHIKKLAEL : not found (inactive)

Consider the additional binder presented here.
According to the records, this binder design_598_15ab41e9-cad4-4381-8935-81f74b313fe8_2011_dldesign_0_cycle1_af2pred (protein) KLEEYKKKIKEKAKEMGKSLDPEERKKLLEEIKKLAKEASKELGEKEEIEKFAAEEAHEGLEQASENRFKS displays binding in a display sort of not found (inactive)
